pKd listing for selected binders.
- Target or test system: T1, human IL-13 R130Q variant (R110Q of the mature chain) (human, UniProt P35225 35-146, Biotinylated on amines (NHS-LC-biotin, 4:1) in ELISA, panning and competition assays. The letters are unchanged.)
- T1 construct: R130Q counts from Met 1 of the signal peptide, R110Q on the mature chain; Bought from Peprotech; also called IL-13 R110Q; b-R130Q
- T1 sequence (P35225 35-146 limits assumed, stated change not applied): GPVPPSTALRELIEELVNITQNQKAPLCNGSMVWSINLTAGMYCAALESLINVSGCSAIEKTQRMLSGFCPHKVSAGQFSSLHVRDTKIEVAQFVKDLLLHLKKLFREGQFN
- Assay explanation: SPR (Biacore), mAb made in HEK293
pKd: −log10 of the molar value.

{"Binder": "mAb Lc-2B03 with Hc2 M34V, M100L, V106I (antibody, V domains shown, full-length mAb) VH: QVTLKESGPVLVKPTETLTLTCTVSGFSLSTYGVGVGWIRQPPGKALEWLAHIWWDDVKRYNPALKSRLTISKDTSKSQVVLTMTNMDPVDTATYYCARLGSDYDIWFDYWGQGTLVTVSS VL: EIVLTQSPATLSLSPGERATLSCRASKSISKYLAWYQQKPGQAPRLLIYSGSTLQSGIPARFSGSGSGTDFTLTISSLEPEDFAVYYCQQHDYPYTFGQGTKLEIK", "pKd": 10.60}
{"Binder": "mAb Lc-2B03 with Hc2 T31S, M34V, M100L (antibody, V domains shown, full-length mAb, made in HEK293 and CHO) VH: QVTLKESGPVLVKPTETLTLTCTVSGFSLSSYGVGVGWIRQPPGKALEWLAHIWWDDVKRYNPALKSRLTISKDTSKSQVVLTMTNMDPVDTATYYCARLGSDYDVWFDYWGQGTLVTVSS VL: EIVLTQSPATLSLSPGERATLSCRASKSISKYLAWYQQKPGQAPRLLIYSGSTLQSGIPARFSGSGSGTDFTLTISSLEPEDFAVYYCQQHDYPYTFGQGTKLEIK", "pKd": 11.43}
{"Binder": "mAb Lc-2B03 with Hc2 M34E, M100L, V106I (antibody, V domains shown, full-length mAb) VH: QVTLKESGPVLVKPTETLTLTCTVSGFSLSTYGEGVGWIRQPPGKALEWLAHIWWDDVKRYNPALKSRLTISKDTSKSQVVLTMTNMDPVDTATYYCARLGSDYDIWFDYWGQGTLVTVSS VL: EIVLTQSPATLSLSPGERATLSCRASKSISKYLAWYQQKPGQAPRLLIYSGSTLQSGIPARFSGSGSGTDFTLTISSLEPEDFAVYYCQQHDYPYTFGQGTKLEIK", "pKd": 10.94}
{"Binder": "mAb Lc-2B03 with Hc2 M34E, M100L (antibody, V domains shown, full-length mAb) VH: QVTLKESGPVLVKPTETLTLTCTVSGFSLSTYGEGVGWIRQPPGKALEWLAHIWWDDVKRYNPALKSRLTISKDTSKSQVVLTMTNMDPVDTATYYCARLGSDYDVWFDYWGQGTLVTVSS VL: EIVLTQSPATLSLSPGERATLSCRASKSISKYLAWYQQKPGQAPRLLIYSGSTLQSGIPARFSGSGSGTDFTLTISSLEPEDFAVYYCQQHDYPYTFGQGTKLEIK", "pKd": 11.12}
{"Binder": "mAb Lc-2B03 with Hc2 T31S, M34S, M100L (antibody, V domains shown, full-length mAb, made in HEK293 and CHO) VH: QVTLKESGPVLVKPTETLTLTCTVSGFSLSSYGSGVGWIRQPPGKALEWLAHIWWDDVKRYNPALKSRLTISKDTSKSQVVLTMTNMDPVDTATYYCARLGSDYDVWFDYWGQGTLVTVSS VL: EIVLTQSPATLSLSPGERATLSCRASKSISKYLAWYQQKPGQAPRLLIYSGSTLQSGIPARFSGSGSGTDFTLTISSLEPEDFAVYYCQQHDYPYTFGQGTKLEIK", "pKd": 10.91}
